Readings of pEC50 for the listed compounds
- EXPERIMENTAL SYSTEM: human somatostatin receptor subtype 2 (Homo sapiens, UniProt P30874)
- Construct: expressed in transfected cells
- Sequence (P30874 whole entry): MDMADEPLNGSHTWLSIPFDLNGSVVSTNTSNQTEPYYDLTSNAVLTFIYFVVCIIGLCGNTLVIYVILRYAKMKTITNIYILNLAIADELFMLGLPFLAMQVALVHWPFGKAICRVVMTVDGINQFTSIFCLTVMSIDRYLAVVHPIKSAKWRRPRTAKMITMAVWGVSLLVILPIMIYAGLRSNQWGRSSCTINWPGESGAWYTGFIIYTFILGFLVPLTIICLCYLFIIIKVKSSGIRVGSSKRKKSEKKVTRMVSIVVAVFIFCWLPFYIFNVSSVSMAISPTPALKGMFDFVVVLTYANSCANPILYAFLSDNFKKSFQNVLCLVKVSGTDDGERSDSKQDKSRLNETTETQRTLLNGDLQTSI
- PROCEDURE SUMMARY: Functional cAMP assay for SSTR2 agonists (HTRF) in CHO-K1 cells
- Assay type: cell-based
- ASSAY CONTEXT: CHO-K1 cells stably expressing human SST2, 20 min; read-out: hSST2 cAMP Avg EC50
Remember the convention: pEC50 equals -log10 of concentration in molar.

COMPOUND: CC[C@H](C)[C@@H]([C@@H](CC(=O)N1CCC[C@H]1[C@H](OC)[C@@H](C)C(=O)N[C@H](C)[C@@H](O)c1ccccc1)OC)N(C)C(=O)[C@@H](NC(=O)[C@H](C(C)C)N(C)C(=O)OCc1ccc(NC(=O)[C@H](CCCNC(N)=O)NC(=O)[C@@H](NC(=O)[C@H](CCC(N)=O)NC(=O)CCOCCC(=O)NCCNc2ncc(-c3cc(C)cc(F)c3)c(N3CCC(N)CC3)c2-c2nc3ccc(Cl)cc3[nH]2)C(C)C)cc1C(=O)NC)C(C)C [Compound 54]
pEC50: 9.77

Now take the following compound into account.
(Q) Please report pEC50 for the following compound: CCC(C)C(C(CC(=O)N1CCCC1C(OC)C(C)C(=O)NC(C)C(O)c1ccccc1)OC)N(C)C(=O)C(NC(=O)C(C(C)C)N(C)C(=O)OCc1ccc(NC(=O)CNC(=O)[C@H](Cc2ccccc2)NC(=O)CNC(=O)CNC(=O)CCOCCC(=O)NCCNc2ncc(-c3cc(C)cc(F)c3)c(N3CCC(N)CC3)c2-c2nc3ccc(Cl)cc3[nH]2)cc1)C(C)C (stereo in doubt) [Compound 35]
(A) 9.24

###

Readings of EC50 for the listed compounds
- EXPERIMENTAL SYSTEM: human somatostatin receptor subtype 2 (Homo sapiens, UniProt P30874)
- Construct: expressed in transfected cells
- PROCEDURE SUMMARY: Functional cAMP assay for SSTR2 agonists (HTRF) in CHO-K1 cells
- Type: cell-based
- ASSAY CONTEXT: CHO-K1 cells stably expressing human SST2, 20 min; read-out: hSST2 cAMP Avg EC50
The reply should be a number in nM, with the unit left off.

CHEMICAL STRUCTURE: Cc1cc(F)cc(-c2cnc(NCCCNC(=O)CCOCCOCCOCCOCCOCCNC(=O)CN3CCN(CC(=O)O)CCN(CC(=O)O)CCN(CC(=O)O)CC3)c(-c3nc4cc(Cl)ccc4[nH]3)c2N2CCC(N)CC2)c1
EC50 / nM: 0.14

(Q) Please report EC50 for the following compound: "CC[C@H](C)[C@@H]([C@@H](CC(=O)N1CCC[C@H]1[C@H](OC)[C@@H](C)C(=O)N[C@H](C)[C@@H](O)c1ccccc1)OC)N(C)C(=O)[C@@H](NC(=O)[C@H](C(C)C)N(C)C(=O)OCc1ccc(NC(=O)[C@H](CCCNC(N)=O)NC(=O)[C@@H](NC(=O)CCOCCC(=O)N[C@@H](CS(=O)(=O)O)C(=O)NCCNc2ncc(-c3cc(C)cc(F)c3)c(N3CCC(N)CC3)c2-c2nc3ccc(Cl)cc3[nH]2)C(C)C)cc1)C(C)C"
(A) 0.44

(Q) Please report EC50 for the following compound: "CC[C@H](C)[C@@H]([C@@H](CC(=O)N1CCC[C@H]1[C@H](OC)[C@@H](C)C(=O)N[C@H](C)[C@@H](O)c1ccccc1)OC)N(C)C(=O)[C@@H](NC(=O)[C@H](C(C)C)N(C)C(=O)OCc1ccc(NC(=O)[C@H](CCCNC(N)=O)NC(=O)[C@@H](NC(=O)CCOCCC(=O)NCCNc2ncc(-c3cc(C)cc(F)c3)c(N3CCC(N)CC3)c2-c2nc3ccc(Cl)cc3[nH]2)C(C)C)cc1C(=O)NCCN)C(C)C"
(A) 0.31
